The origin of these recorded values is ChEMBL document CHEMBL1201862.

Each entry below lists one item and its recorded GI50 value.
- Tested on: Hs-578T
- EXPERIMENT NOTES: NCI tumour cell line growth inhibition, 48 h
The source made the active and inactive calls. Rule as the data show it: active = GI50 up to about 1.1 µM and inactive = higher.

COMPOUND	GI50
CN(/N=C/c1ccc(Cl)cc1)C1=NCCCCN1	> 100 µM (inactive)
O=C(Nc1ccc(Cl)cc1Cl)C1C(=O)OC2(CCCCC2)OC1=O	10.8 µM (inactive)
COc1cccc(C[C@H]2COC(=O)[C@]2(O)Cc2cccc(OC)c2)c1	> 100 µM (inactive)
COc1cc(C2OC[C@@H]3C(=O)OC[C@H]23)cc(O)c1OC (stereo not given in full)	> 100 µM (inactive)
O=[N+]([O-])c1ccc(S[C@@H]2[C@H]3c4c(-c5ccccc5)[nH]c(-c5ccccc5)c4[C@@H]2C[C@H]3Cl)cc1	5.08 µM (inactive)

====

- Tested on: SF-295
- EXPERIMENT NOTES: NCI tumour cell line growth inhibition, 48 h
Calls of active or inactive are those of the source. No stated cut-off is given here; in the data, active = GI50 up to about 1.1 µM and inactive = higher.

MOLECULE	GI50
O=c1[nH]c(=O)n(C2CC(O)C(CO)O2)cc1/N=N/NCCc1ccccc1 (configuration not stated)	> 100 µM (inactive)
C[n+]1cc2cc(O)c(O)cc2c2ccc3cc(O)c(O)cc3c21.c1ccncc1	3.39 µM (inactive)
S=C(Nc1ccc2c(c1)oc1ccccc12)c1cccnc1	29.9 µM (inactive)
O=[N+]([O-])c1cc2c(cc1/C=N/n1c(CO)nc3ccccc31)OCO2	> 100 µM (inactive)
COC(=O)[C@H](NC(=O)OC(C)(C)C)[C@H]1COC(C)(C)O1	> 100 µM (inactive)
CCCCCC(=O)Nc1[nH]cnc1C(N)=O	> 100 µM (inactive)
Nc1nnc2oc3ccc4ccccc4c3cc1-2	26.4 µM (inactive)
CC(C)C[C@H]1[C@@H](OCc2ccccc2)COS(=O)N1[C@H](C)c1ccccc1 (some centres not stated)	4 µM (inactive)
NC(=O)NCc1c(C(N)=O)ncn1Cc1ccccc1	> 100 µM (inactive)
O=C(CC1C=CCS1(=O)=O)NCc1ccccc1 (configuration not stated)	> 100 µM (inactive)
NCCCCNOCCCN	> 100 µM (inactive)
CN(C)CCC(=O)c1ccccc1	> 100 µM (inactive)

====

Attribute: GI50
- Tested on: HOP-18
- EXPERIMENT NOTES: NCI tumour cell line growth inhibition, 48 h
The source made the active and inactive calls. No stated cut-off is given here; in the data, active = GI50 up to about 1.1 µM and inactive = higher.
RECORDED ENDPOINT: GI50

MOLECULE	TGT	RECORDED ENDPOINT	REPORTED RESULT
CCOc1ccc(/N=N/c2c(-c3ccccc3)nn(C(=O)CC(=O)Nc3ccccc3Cl)c2-c2ccccc2)cc1	HOP-18	GI50	> 100 µM (inactive)
NNC(=O)/C(=C/c1cccc([N+](=O)[O-])c1)NC(=O)c1ccccc1	HOP-18	GI50	> 100 µM (inactive)
COc1ccc2c(c1OC)C(C=C(c1ccccc1)c1ccccc1)CN(C)C2 (centres undefined)	HOP-18	GI50	17.6 µM (inactive)
O=CC1=CCCN(CCc2c[nH]c3ccccc23)C1	HOP-18	GI50	57.3 µM (inactive)
CCOC(=O)Cc1c(Cc2[nH]c(C(=O)OCc3ccccc3)c(CC(=O)OCC)c2CC(=O)OCC)[nH]c(C(=O)OCc2ccccc2)c1CC(=O)OCC	HOP-18	GI50	> 100 µM (inactive)
O=C1/C(=C/c2ccc(O)cc2)CCC1CNc1ccc(Cl)cc1 (centres undefined)	HOP-18	GI50	6.08 µM (inactive)
Cc1cccc(C(C)(C)C)c1NC(=O)CCl	HOP-18	GI50	> 100 µM (inactive)
NCc1ccccc1-c1c2nc(c(-c3ccccc3CN)c3ccc([nH]3)c(-c3ccccc3CN)c3nc(c(-c4ccccc4CN)c4ccc1[nH]4)C=C3)C=C2	HOP-18	GI50	1.18 µM (inactive)
Clc1ccc(C2N3CCCCC3[C@@H]3c4[nH]c5ccccc5c4CCN23)cc1 (some centres undefined)	HOP-18	GI50	> 100 µM (inactive)

====

- Test system: NCI-H522
- EXPERIMENT NOTES: NCI tumour cell line growth inhibition, 48 h
Active and inactive are the calls of the source. No stated cut-off is given here; in the data, active = GI50 up to about 1.1 µM and inactive = higher.
A collection of compounds and their measured GI50

COMPOUND	GI50
CC(=O)OC1CC2CCC1(C)C2(C)C (stereo not given)	> 100 µM (inactive)
COC(=O)CC1CC2(C(=O)OC)c3[nH]c4ccccc4c3CCN2C1=O (stereo not given)	> 100 µM (inactive)
CC(=O)OCC(OC(C)=O)C(OC(C)=O)C(OC(C)=O)C(/C=N\Nc1nc2ccccc2c(=O)[nH]1)OC(C)=O (stereo not given)	> 100 µM (inactive)
CCOC(=O)C1=C(C)N2CCOC2(C)C(C(=O)OC)C1c1cccc(Cl)c1 (stereo not given)	88.7 µM (inactive)
COc1ccc(S(=O)(=O)Nc2ccccc2C(=O)O)cc1	> 100 µM (inactive)
COC(=O)C1CCC(=S)N1C(C)=O (stereo not given)	> 100 µM (inactive)
Cc1cccc(NC(=O)C(=O)C(C2OC(=O)c3ccccc32)[N+](=O)[O-])c1C (stereo not given)	2 µM (inactive)
COc1c(O)c(OC)c2oc(-c3ccc(O)c(O)c3)c(OC)c(=O)c2c1O	10.5 µM (inactive)
C[C@H]1[C@@H](c2ccccc2)O[B-](c2ccccc2)(c2ccccc2)[N+]1(C)C	35.7 µM (inactive)
C=C1CC[C@@H]2C(C)(C)C(O)CCC2(C)C1COc1ccc2ccc(=O)oc2c1 (stereo not given in full)	16.3 µM (inactive)

====

- Tested on: SK-MEL-2
- EXPERIMENT NOTES: NCI tumour cell line growth inhibition, 48 h
Activity calls are given as the source filed them. Rule as the data show it: active = GI50 up to about 1.1 µM and inactive = higher.
Labels: 1 (yes) (active), 0 (no) (inactive)

COMPOUND	ASSIGNED CATEGORY
COc1ccc(NCc2cc(OC)cc(OC)c2)cc1	0 (no)
COc1c(Cl)ccc(Cl)c1-c1nnc(-c2c(Cl)c(Cl)c(Cl)c(Cl)c2-c2nc3cc(C(=O)c4ccccc4)ccc3[nH]2)o1	0 (no)
CC(C)(C)CC(C)(C)c1cc2c(O)c(c1)Cc1cc(C(C)(C)CC(C)(C)C)cc(c1O)Cc1cc(C(C)(C)CC(C)(C)C)cc(c1O)Cc1cc(C(C)(C)CC(C)(C)C)cc(c1O)C2	0 (no)
Cn1c(=O)c2c(nc3n2CC(C(=O)O)N3)n(C)c1=O (configuration not stated)	0 (no)
OC(c1ccc(-c2ccccc2)cc1)C(F)(F)c1nc2ccccc2o1 (configuration not stated)	0 (no)
COC(C)(C)OCCN1CCN(CCN2C3=C(C=C(C(C)=O)C3)Sc3ccccc32)CC1	0 (no)
CCOC(=O)C1=C(C)N2CCOC2(C)C(C(=O)OC)C1c1cccc(Cl)c1 (configuration not stated)	0 (no)
O=C(Nc1ccccc1F)c1cc2ccc(O)cc2o/c1=N\c1cccc(F)c1	0 (no)
CC(=O)OCC(OC(C)=O)C(OC(C)=O)C(OC(C)=O)C(C=NN(C(C)=O)S(=O)(=O)c1ccc(/C=C2\NC(=O)N(C)C2=O)cc1)OC(C)=O (configuration not stated)	0 (no)
CC(=O)O[C@H]1C#C/C=C\C#CC[C@@H]2C(=O)N(C(=O)OC(C)(C)C)[C@@H]12	0 (no)
Oc1cc(-c2ccccc2Cl)nc2cc3c(cc12)OCO3	1 (yes)
O=[N+]([O-])c1ccc(S[C@@H]2[C@H]3c4c(-c5ccccc5)[nH]c(-c5ccccc5)c4[C@@H]2C[C@H]3Cl)cc1	0 (no)

====

- System: MDA-MB-435
- EXPERIMENT NOTES: NCI tumour cell line growth inhibition, 48 h
Activity calls are given as the source filed them. Rule as the data show it: active = GI50 up to about 1.1 µM and inactive = higher.
# Lookup of reported GI50 keyed by entry
RECORDED ENDPOINT: GI50

COMPOUND	REPORTED RESULT
Cc1cc2[nH]c3c(C#N)c(-c4ccccc4)c(/N=N/c4cccc(C(F)(F)F)c4)c(=O)n3c2cc1C	38.8 µM (inactive)
Cc1sccc1C(=S)Nc1ccc(Cl)c(/C=N/OC(C)(C)C)c1	21.7 µM (inactive)
CC(C)=CCC/C(C)=C/CC/C(C)=C/CC/C(C=O)=C/CC/C(C)=C\CC/C(C)=C/CC/C(C)=C/CC/C(C)=C/CC1=CC(=O)C=CC1=O	56.4 µM (inactive)
CCOC(=O)c1csc(NC(=O)CN2CCCCC2)n1	> 100 µM (inactive)
O=S(=O)(O)c1ccccc1/N=N\c1ccc(/N=N/c2c(O)ccc3ccccc23)c(S(=O)(=O)O)c1	> 100 µM (inactive)
CC(SC(=S)N1CCCCC1)C(=O)Nc1nnc(-c2ccc(Cl)cc2)o1 (centres undefined)	34.1 µM (inactive)
O=C(N/N=C/C=C/c1ccc([N+](=O)[O-])o1)c1ccc(C(=O)N/N=C/C=C/c2ccc([N+](=O)[O-])o2)cc1	37.2 µM (inactive)
CCOC(=O)Nc1c(C#N)[n+]([O-])c2cc(Cl)c(Cl)cc2[n+]1[O-]	16.4 µM (inactive)
Cn1c2ccc(F)cc2c2ccc3c(c21)C(=O)C=CC3=O	16.4 µM (inactive)
